Please go through the items and note down their relative viability.
Tested on: HCC-78
method-description: relative viability (nuclei count vs DMSO), 5 days (fraction); higher = more cells survive
measurement-parameters: first compound 8 µM
Would you mind answering with just the numeric figure?

Data point: Nc1cccc2c1CN(C1CCC(=O)NC1=O)C2=O (stereo not drawn) [Lenalidomide] + CC1(C)CCC(c2ccc(Cl)cc2)=C(CN2CCN(c3ccc(C(=O)NS(=O)(=O)c4ccc(N[C@H](CCN5CCOCC5)CSc5ccccc5)c(S(=O)(=O)C(F)(F)F)c4)cc3)CC2)C1 [Navitoclax] (partner 0.5 µM) ; relative viability = 0.654

Data point: Nc1cccc2c1CN(C1CCC(=O)NC1=O)C2=O (stereo not drawn) [Lenalidomide] + NC(=O)Nc1cc(-c2cccc(F)c2)sc1C(=O)N[C@H]1CCCNC1 [AZD7762] (partner 0.2 µM) ; relative viability = 0.417

Data point: Nc1cccc2c1CN(C1CCC(=O)NC1=O)C2=O (stereo not drawn) [Lenalidomide] + C[C@@H](Oc1cc(-c2cnn(C3CCNCC3)c2)cnc1N)c1c(Cl)ccc(F)c1Cl [Crizotinib] (partner 1 µM) ; relative viability = 0.3
